Measured growth sensitivity score, listed per entry.
- Test system: S. cerevisiae BY4741 (wild-type), vegetative growth in YPD
- assay.info: growth sensitivity score (doubling time z-score vs DMSO controls); higher = slower growth, strongly negative scores also mark growth inhibition (complete suppression), active = hit call of the paper
Structures can show the parent of a compound that is named as a salt.
Answer with the value's number alone.

Below are worked cases with known answers.
COc1cc2nc(N(C)CCCNC(=O)C3CCCO3)nc(N)c2cc1OC (stereo not given) [Alfuzosin] (stock concentration (mM, diluted 1:100): 10) | -0.26
CC(C)(C)NC(=O)[C@@H]1CN(Cc2cccnc2)CCN1C[C@@H](O)C[C@@H](Cc1ccccc1)C(=O)N[C@H]1c2ccccc2C[C@H]1O [Indinavir sulphate] (stock concentration (mM, diluted 1:100): 8.6) | 0
O=C(O)CCNC(=O)c1ccc(/N=N/c2ccc(O)c(C(=O)O)c2)cc1 [Balsalazide] (stock concentration (mM, diluted 1:100): 10) | -1.09
CCOC(=O)c1ccc(OC(=O)CCCCCNC(=N)N)cc1 [Gabexate mesylate] (stock concentration (mM, diluted 1:100): 7.7) | 1.03

// below: growth sensitivity score requested for another compound
// query Output growth sensitivity score of C[C@@H]1O[C@@H](OC[C@H]2O[C@@H](Oc3c(-c4ccc(O)c(O)c4)oc4cc(O)cc(O)c4c3=O)[C@H](O)[C@@H](O)[C@@H]2O)[C@H](O)[C@H](O)[C@H]1O [Rutin] (stock concentration (mM, diluted 1:100): 10)
// result -2.67

---

- System: S. cerevisiae AD1-9 (efflux-pump deficient), vegetative growth in YPD
- assay.info: growth sensitivity score (doubling time z-score vs DMSO controls); higher = slower growth, strongly negative scores also mark growth inhibition (complete suppression), active = hit call of the paper
Measured growth sensitivity score, listed per entry.
Answer with the value's number alone.

Below are worked cases with known answers.
C[C@H]1COc2c(C3(N)CC3)c(F)cc3c(=O)c(C(=O)O)cn1c23 [Pazufloxacin] (stock concentration (mM, diluted 1:100): 10) | 0.07
COc1ccnc(C[S+]([O-])c2nc3cc(OC(F)F)ccc3[nH]2)c1OC (stereo not drawn) [Pantoprazole sodium] (stock concentration (mM, diluted 1:100): 10) | -2.1

// query Tell me growth sensitivity score of CCN1CCC[C@H]1CNC(=O)c1c(O)c(Cl)cc(Cl)c1OC [Raclopride] (stock concentration (mM, diluted 1:100): 10) when tested on S. cerevisiae AD1-9 (efflux-pump deficient), vegetative growth in YPD.
// result -1.88

---

- System: S. cerevisiae BY4741 (wild-type), vegetative growth in YPD
- assay.info: growth sensitivity score (doubling time z-score vs DMSO controls); higher = slower growth, strongly negative scores also mark growth inhibition (complete suppression), active = hit call of the paper
Counter-ions that a name gives are not always drawn.
Measured growth sensitivity score, listed per entry.
Answer with the value's number alone.

Below are worked cases with known answers.
CC(=O)[C@H]1CC[C@H]2[C@@H]3CCC4=CC(=O)CC[C@]4(C)[C@H]3CC[C@]12C [Progesterone] (stock concentration (mM, diluted 1:100): 10) | 4.04
CNCC[C@H](Oc1cccc2ccccc12)c1cccs1 [Duloxetine hydrochloride] (stock concentration (mM, diluted 1:100): 8.9) | 21.8
CN(C)CCCC1(c2ccc(F)cc2)OCc2cc(C#N)ccc21 (stereo not given) [Citalopram hydrobromide] (stock concentration (mM, diluted 1:100): 7.9) | -0.04

// query Output growth sensitivity score of CC(C)c1nc(CN(C)C(=O)N[C@H](C(=O)N[C@@H](Cc2ccccc2)C[C@H](O)[C@H](Cc2ccccc2)NC(=O)OCc2cncs2)C(C)C)cs1 [Ritonavir] (stock concentration (mM, diluted 1:100): 10)
// result -0.97

// query Output growth sensitivity score of COc1cc(-c2ccc(=O)[nH]n2)ccc1OC(F)F [Zardaverine] (stock concentration (mM, diluted 1:100): 11.7)
// result 1.71

---

- Tested on: S. cerevisiae BY4741 (wild-type), vegetative growth in YPD
- assay.info: growth sensitivity score (doubling time z-score vs DMSO controls); higher = slower growth, strongly negative scores also mark growth inhibition (complete suppression), active = hit call of the paper
result.type: growth sensitivity score
Answer with the value's number alone.

Below are worked cases with known answers.
C[C@]12CCC(=O)C=C1CC[C@@H]1[C@@H]2CC[C@@]2(C)[C@H]1CC[C@]2(O)C(=O)CO [Cortodoxone] (stock concentration (mM, diluted 1:100): 10) | -0.69
CC(N/C(=N\C#N)Nc1ccncc1)C(C)(C)C (stereo not drawn) [Pinacidil monohydrate] (stock concentration (mM, diluted 1:100): 10) | 1.52

// below: growth sensitivity score requested for another compound
// query Tell me growth sensitivity score of CN(C)CCc1c[nH]c2ccc(C[C@H]3COC(=O)N3)cc12 [Zolmitriptan] (stock concentration (mM, diluted 1:100): 10) when tested on S. cerevisiae BY4741 (wild-type), vegetative growth in YPD.
// result -0.77

---

- Tested on: S. cerevisiae SK1 pCDA2-eGFP (USY613), sporulating;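 also: active if sensitivity score above 5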
- assay.info: CDA2-GFP sporulation assay sensitivity score (z-score vs DMSO controls); higher = stronger inhibition of sporulation, active = hit call of the paper
Where a name gives a salt, the structure may show the parent alone.
Hi! Could you answer with just one of these? Y for active, N for inactive

// query Hi, do you know how CCN(CC)C(=S)SSC(=S)N(CC)CC [Tetraethylthiuram disulfide] (stock concentration (mM, diluted 1:100): 10) came out in this test?
// result N

// query Hi, do you know how CC(C(=O)O)c1ccc(-c2ccccc2)c(F)c1 (configuration not stated) [Flurbiprofen] (stock concentration (mM, diluted 1:100): 11.4) came out in this test?
// result N

// query Hi, do you know how CC1=Nc2ccc(Cl)cc2S(=O)(=O)N1 [Diazoxide] (stock concentration (mM, diluted 1:100): 10) came out in this test?
// result N

// query Hi, do you know how CN1CCC(=C2c3ccccc3C=Cc3ccccc32)CC1 [Cyproheptadine hydrochloride] (stock concentration (mM, diluted 1:100): 10) came out in this test?
// result Y

// query Hi, do you know how CO[C@H]1O[C@@H]2O[C@@]3(C)CC[C@H]4[C@H](C)CC[C@@H]([C@H]1C)[C@@]24OO3 [Artemether] (stock concentration (mM, diluted 1:100): 10) came out in this test?
// result N

// query Hi, do you know how CCOC(=O)N1CCC(=C2c3ccc(Cl)cc3CCc3cccnc32)CC1 [Loratadine] (stock concentration (mM, diluted 1:100): 10) came out in this test?
// result N

// query Hi, do you know how CS(=O)(=O)c1ccc(C2=C(c3ccccc3)C(=O)OC2)cc1 [Rofecoxib] (stock concentration (mM, diluted 1:100): 10) came out in this test?
// result N

// query Hi, do you know how Nc1nc2ccc(OC(F)(F)F)cc2s1 [Riluzole] (stock concentration (mM, diluted 1:100): 9.9) came out in this test?
// result Y

// query Hi, do you know how CNNCc1ccc(C(=O)NC(C)C)cc1 [Procarbazine hydrochloride] (stock concentration (mM, diluted 1:100): 8.6) came out in this test?
// result N

// query Hi, do you know how CCCc1nc2c(C)cc(-c3nc4ccccc4n3C)cc2n1Cc1ccc(-c2ccccc2C(=O)O)cc1 [Telmisartan] (stock concentration (mM, diluted 1:100): 10) came out in this test?
// result N

// query Hi, do you know how CCCCC1=NC2(CCCC2)C(=O)N1Cc1ccc(-c2ccccc2-c2nnn[nH]2)cc1 [Irbesartan] (stock concentration (mM, diluted 1:100): 10.1) came out in this test?
// result N

// query Hi, do you know how Cc1onc(-c2ccccc2)c1-c1ccc(S(N)(=O)=O)cc1 [Valdecoxib] (stock concentration (mM, diluted 1:100): 10) came out in this test?
// result N

---

Measured CDA2-GFP sporulation assay sensitivity score, listed per entry.
- Tested on: S. cerevisiae SK1 pCDA2-eGFP (USY613), sporulating;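 also: active if sensitivity score above 5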
- assay.info: CDA2-GFP sporulation assay sensitivity score (z-score vs DMSO controls); higher = stronger inhibition of sporulation, active = hit call of the paper
Counter-ions that a name gives are not always drawn.
Answer with the value's number alone.

// query Output CDA2-GFP sporulation assay sensitivity score of CC(Oc1c(Cl)cccc1Cl)C1=NCCN1 (configuration not stated) [Lofexidine hydrochloride] (stock concentration (mM, diluted 1:100): 10)
// result 7.06

// query Output CDA2-GFP sporulation assay sensitivity score of CC#C[C@]1(O)CC[C@H]2[C@@H]3CCC4=CC(=O)CCC4=C3[C@@H](c3ccc(N(C)C)cc3)C[C@@]21C [Mifepristone] (stock concentration (mM, diluted 1:100): 10)
// result 9.91

// query Output CDA2-GFP sporulation assay sensitivity score of C[C@H](N[C@@H](CCc1ccccc1)C(=O)O)C(=O)N1CCC[C@H]1C(=O)O [Enalaprilat] (stock concentration (mM, diluted 1:100): 10)
// result 1.04

// query Output CDA2-GFP sporulation assay sensitivity score of CCC1=C(C)CN(C(=O)NCCc2ccc(S(=O)(=O)NC(=O)N[C@H]3CC[C@H](C)CC3)cc2)C1=O [Glimepiride] (stock concentration (mM, diluted 1:100): 7.7)
// result 0.5

// query Output CDA2-GFP sporulation assay sensitivity score of CN1CCN2c3ncccc3Cc3ccccc3C2C1 (configuration not stated) [Mirtazapine] (stock concentration (mM, diluted 1:100): 10)
// result 12.7
